Tested on: Igrove/Jurkat-DNR chemoreversal, trypan blue viability, 7 d
Assay: chemoreversal in ABCG2 cells, dose response, ABC transporter inhibitor project, paired ABCB1 counter-screen, SAR hit validation (AID 488974)
Active and inactive are the calls of the source.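 How the source made its calls: active means ratio of toxic midpoint dose to chemo-reversal midpoint dose above 10, among compounds with toxic midpoint under 15 µM; inactive means the rest.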
// allowed return values: active, inactive

The examples below pair each entry with its known result.
O=C(c1ccoc1)N1CCN(c2cc(-c3ccccc3)nc3cc(-c4ccncc4)nn23)CC1; active
O=C(C1CCCO1)N1CCN(c2c3c(nc4cc(-c5cccc(F)c5)nn24)CCCC3)CC1 (configuration not stated); active
COc1cccc(-c2cc3nc(C)c(C)c(N4CCN(Cc5ccco5)CC4)n3n2)c1; active
COc1ccc(-c2cc3nc(-c4ccccc4)cc(N4CCN(C(=O)c5ccsc5)CC4)n3n2)cc1; active
Cc1nc2ncnn2c(N2CCN(C(=O)c3ccco3)CC2)c1Cc1ccccc1; inactive

Q: Answer briefly: the call reported for COc1ccc(-c2cc3nc(-c4ccccc4)cc(N4CCN(C(=O)c5ccoc5)CC4)n3n2)cc1 in this assay.
A: active

Q: Answer briefly: the call reported for O=C(c1ccoc1)N1CCN(c2cc(-c3ccncc3)nc3cc(-c4cccc(Cl)c4)nn23)CC1 in this assay.
A: active

Q: Answer briefly: the call reported for Cc1ccc(-c2cc3nc(-c4ccccc4)cc(N4CCN(C(=O)c5ccoc5)CC4)n3n2)cc1 in this assay.
A: active

Q: Answer briefly: the call reported for COc1cccc(-c2cc3nc(-c4ccco4)cc(N4CCN(C(=O)c5ccoc5)CC4)n3n2)c1 in this assay.
A: active

Q: Answer briefly: the call reported for O=C(c1ccco1)N1CCN(c2cc(-c3ccccc3)nc3cc(-c4cccc(Cl)c4)nn23)CC1 in this assay.
A: inactive

Q: Answer briefly: the call reported for O=C(c1ccco1)N1CCN(c2cc(Cc3ccccc3)nc3cc(-c4cccc(Cl)c4)nn23)CC1 in this assay.
A: inactive

Q: Answer briefly: the call reported for O=C(c1ccco1)N1CCN(c2c3c(nc4cc(-c5cccc(F)c5)nn24)CCCC3)CC1 in this assay.
A: inactive

Q: Answer briefly: the call reported for O=C(c1ccoc1)N1CCN(c2cc(-c3ccco3)nc3cc(-c4cccc(Cl)c4)nn23)CC1 in this assay.
A: inactive

Q: Answer briefly: the call reported for COc1ccc(-c2cc3nc(-c4ccccc4)cc(N4CCN(C(=O)c5ccccc5)CC4)n3n2)cc1 in this assay.
A: active

Q: Answer briefly: the call reported for O=C(c1ccoc1)N1CCN(c2cc(-c3cccnc3)nc3cc(-c4cccc(Cl)c4)nn23)CC1 in this assay.
A: inactive

Q: Answer briefly: the call reported for Cc1nc2cc(-c3cccc(Cl)c3)nn2c(N2CCN(C(=O)c3ccco3)CC2)c1C in this assay.
A: active

Q: Answer briefly: the call reported for Cc1nc2cc(-c3ccc4c(c3)OCO4)nn2c(N2CCN(C(=O)c3ccoc3)CC2)c1C in this assay.
A: active

Q: Answer briefly: the call reported for Cc1cc(N2CCN(C(=O)c3ccco3)CC2)n2nc(C)c(-c3ccccc3)c2n1 in this assay.
A: active

Q: Answer briefly: the call reported for COc1cccc(C(=O)N2CCN(c3cc(-c4ccccc4)nc4cc(-c5cccc(Cl)c5)nn34)CC2)c1 in this assay.
A: active

Q: Answer briefly: the call reported for Cc1nc2cc(-c3cccc(Cl)c3)nn2c(N2CCN(C(=O)c3ccoc3)CC2)c1C in this assay.
A: active

Q: Answer briefly: the call reported for COc1ccccc1-c1cc2nc(-c3ccccc3)cc(N3CCN(C(=O)c4ccoc4)CC3)n2n1 in this assay.
A: inactive

Q: Answer briefly: the call reported for COc1ccc(-c2cc3nc(C)c(C)c(N4CCN(C(C)=O)CC4)n3n2)cc1 in this assay.
A: active

Q: Answer briefly: the call reported for O=C(c1cccnc1)N1CCN(c2cc(-c3ccccc3)nc3cc(-c4cccc(Cl)c4)nn23)CC1 in this assay.
A: inactive

Q: Answer briefly: the call reported for Cc1nc2cc(-c3cccc(Cl)c3)nn2c(N2CCN(C(=O)c3ccsc3)CC2)c1C in this assay.
A: inactive

Q: Answer briefly: the call reported for O=C(c1ccoc1)N1CCN(c2cc(-c3ccco3)nc3cc(-c4ccccc4)nn23)CC1 in this assay.
A: active
